- target: human ether-à-go-go-related gene (hERG) potassium channel (human, UniProt Q12809);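 also: peak tail current of the secondary pulse compared with the same well before compound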
- Sequence (Q12809 whole entry, looked up): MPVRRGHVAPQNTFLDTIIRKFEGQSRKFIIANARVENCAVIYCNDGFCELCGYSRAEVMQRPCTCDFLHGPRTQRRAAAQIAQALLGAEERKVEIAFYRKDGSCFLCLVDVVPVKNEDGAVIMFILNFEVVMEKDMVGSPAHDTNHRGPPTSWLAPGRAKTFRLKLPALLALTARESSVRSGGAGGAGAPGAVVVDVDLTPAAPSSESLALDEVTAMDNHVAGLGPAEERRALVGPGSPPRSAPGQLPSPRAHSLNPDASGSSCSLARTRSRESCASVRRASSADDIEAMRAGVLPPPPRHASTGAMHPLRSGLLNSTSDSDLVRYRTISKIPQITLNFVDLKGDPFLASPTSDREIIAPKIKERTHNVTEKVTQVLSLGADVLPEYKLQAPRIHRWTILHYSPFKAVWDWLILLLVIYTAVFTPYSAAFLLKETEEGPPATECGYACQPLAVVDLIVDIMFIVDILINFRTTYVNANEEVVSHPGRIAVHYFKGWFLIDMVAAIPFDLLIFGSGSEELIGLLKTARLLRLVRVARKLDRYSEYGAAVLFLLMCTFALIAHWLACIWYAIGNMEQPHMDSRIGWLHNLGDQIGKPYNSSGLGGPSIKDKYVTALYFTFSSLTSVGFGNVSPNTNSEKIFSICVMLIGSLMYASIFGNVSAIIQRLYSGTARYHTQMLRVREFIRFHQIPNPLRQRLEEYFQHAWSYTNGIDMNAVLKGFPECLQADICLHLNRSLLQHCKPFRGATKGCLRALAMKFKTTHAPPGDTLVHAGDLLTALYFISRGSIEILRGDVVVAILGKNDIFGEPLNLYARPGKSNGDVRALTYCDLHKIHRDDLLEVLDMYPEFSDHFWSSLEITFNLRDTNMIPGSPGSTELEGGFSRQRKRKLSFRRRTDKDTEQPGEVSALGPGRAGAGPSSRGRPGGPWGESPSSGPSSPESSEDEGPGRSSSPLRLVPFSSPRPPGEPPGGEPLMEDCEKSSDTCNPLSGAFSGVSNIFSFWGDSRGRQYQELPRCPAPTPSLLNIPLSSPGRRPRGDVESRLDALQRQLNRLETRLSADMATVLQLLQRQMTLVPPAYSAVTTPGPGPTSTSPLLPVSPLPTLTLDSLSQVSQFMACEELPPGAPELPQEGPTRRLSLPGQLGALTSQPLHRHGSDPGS
- test-summary: primary screen, population patch clamp on CHO cells stably expressing hERG; higher = less effect of the substance
The whole screen tested about 310,000 compounds, of which about 14,000 (4.5%) showed an effect of 50% or more. Effects have a minus sign here. The sample as a whole holds a higher share of strong results than the screen did.
hERG current change (%, negative = inhibition) at 10uM values by entry
observation-type: hERG current change (%, negative = inhibition) at 10uM (%)

compound | target | meas-value
COc1ccccc1C1NC(=O)NC(C)=C1C(=O)OC1CCCCC1 (stereo not drawn) | human ether-à-go-go-related gene (hERG) potassium channel (human, UniProt Q12809) | 6.66
Cc1ccccc1OC(=O)Cn1c(C(F)(F)F)nc2ccccc21 | human ether-à-go-go-related gene (hERG) potassium channel (human, UniProt Q12809) | 3.95
Cc1ccc(/C=C2/SC(=S)N(CCCC(=O)Nc3cc([N+](=O)[O-])ccc3O)C2=O)cc1 | human ether-à-go-go-related gene (hERG) potassium channel (human, UniProt Q12809) | 13.1
O=C(COC(=O)c1cnccn1)c1ccc(Br)cc1 | human ether-à-go-go-related gene (hERG) potassium channel (human, UniProt Q12809) | 0.614
O=C(C1=C[C@H](c2ccc(C(F)(F)F)cc2)C[C@H](OCc2ccc(CO)cc2)O1)N1CCN(Cc2ccc3c(c2)OCO3)CC1 | human ether-à-go-go-related gene (hERG) potassium channel (human, UniProt Q12809) | -19.5
N#Cc1ccsc1NC(=O)CN1CCN(S(=O)(=O)c2ccccc2C(F)(F)F)CC1 | human ether-à-go-go-related gene (hERG) potassium channel (human, UniProt Q12809) | -56.9
N#Cc1ccsc1NC(=O)CN1CCN(S(=O)(=O)c2cc(Cl)ccc2Cl)CC1 | human ether-à-go-go-related gene (hERG) potassium channel (human, UniProt Q12809) | -32
Cc1cccc(OCc2n(CC(=O)OC3CC(C)CCC3C(C)C)c3ccccc3[n+]2C)c1.[Cl-] (stereo not drawn) | human ether-à-go-go-related gene (hERG) potassium channel (human, UniProt Q12809) | -75
CC1CCC(C(C)C)C(OC(=O)Cn2c(COc3ccccc3)[n+](C)c3ccccc32)C1.[Cl-] (stereo not drawn) | human ether-à-go-go-related gene (hERG) potassium channel (human, UniProt Q12809) | -80.4
COP(=O)(NS(=O)(=O)c1ccccc1)OC | human ether-à-go-go-related gene (hERG) potassium channel (human, UniProt Q12809) | 19.9
CCOC(=O)c1cc2occc2n1CC(=O)N1CCOCC1 | human ether-à-go-go-related gene (hERG) potassium channel (human, UniProt Q12809) | 6.95
CCOc1cc(C(=O)OCC(=O)N(C)c2ccccc2)cc(OCC)c1OCC | human ether-à-go-go-related gene (hERG) potassium channel (human, UniProt Q12809) | -17.6
Br.CC(C)(C)C(=O)Cn1c(NCCO)nc2ccccc21 | human ether-à-go-go-related gene (hERG) potassium channel (human, UniProt Q12809) | 5.72
CC1CCC(C(C)C)C(OC(=O)COC(=O)c2ccccc2N)C1 (stereo not drawn) | human ether-à-go-go-related gene (hERG) potassium channel (human, UniProt Q12809) | 9.64
Cn1c(=O)oc2cc(S(=O)(=O)NCCC(=O)Nc3ccc4c(c3)OCCO4)ccc21 | human ether-à-go-go-related gene (hERG) potassium channel (human, UniProt Q12809) | 2.4
Cc1nnc(NC(=O)c2csc3c2CCC(C)C3)s1 (stereo not drawn) | human ether-à-go-go-related gene (hERG) potassium channel (human, UniProt Q12809) | 13.9
O=C(C1=C[C@H](c2ccc(Br)cc2)C[C@H](OCc2ccc(CO)cc2)O1)N1CCN(Cc2ccc3c(c2)OCO3)CC1 | human ether-à-go-go-related gene (hERG) potassium channel (human, UniProt Q12809) | -19.8
O=C(O)c1ccccc1NS(=O)(=O)c1ccc2c3c(cccc13)C(=O)N2 | human ether-à-go-go-related gene (hERG) potassium channel (human, UniProt Q12809) | 16.1
CCNC(=O)CSc1nc2cc([N+](=O)[O-])ccc2n1-c1cccc(C(F)(F)F)c1 | human ether-à-go-go-related gene (hERG) potassium channel (human, UniProt Q12809) | -35.8
C/C(=N/Nc1ccnc2cc(Cl)ccc12)c1ccc(O)cc1 | human ether-à-go-go-related gene (hERG) potassium channel (human, UniProt Q12809) | -6.2
CCCCN1C(=O)C(=O)N(CC(=O)N2CCc3ccccc32)C1=O | human ether-à-go-go-related gene (hERG) potassium channel (human, UniProt Q12809) | 5.05
N#Cc1ccsc1NC(=O)CN1CCCCCC1 | human ether-à-go-go-related gene (hERG) potassium channel (human, UniProt Q12809) | -3.42
COc1ccc(C(C)=O)cc1COC(=O)c1ccc(C)c(S(=O)(=O)N2CCOCC2)c1 | human ether-à-go-go-related gene (hERG) potassium channel (human, UniProt Q12809) | -19.8
CCOC(=O)[C@@H](CCc1ccccc1)N[C@H](C)C(=O)N1[C@H](C(=O)O)C[C@@H]2CCC[C@@H]21 | human ether-à-go-go-related gene (hERG) potassium channel (human, UniProt Q12809) | 15.9
NC(=O)NC(=O)CSc1nc2cc([N+](=O)[O-])ccc2n1-c1cccc(C(F)(F)F)c1 | human ether-à-go-go-related gene (hERG) potassium channel (human, UniProt Q12809) | -57.7
Cc1onc(-c2c(Cl)cccc2Cl)c1C(=O)N1CCN(c2ccccc2F)CC1 | human ether-à-go-go-related gene (hERG) potassium channel (human, UniProt Q12809) | 7.58
C=C(C)C(C)(C#CCN1CCCC1)OC(C)=O (stereo not drawn) | human ether-à-go-go-related gene (hERG) potassium channel (human, UniProt Q12809) | -6.48
COc1ccc(OC)c(C2=NOC(C(=O)Nc3cc(C)on3)C2)c1 (stereo not drawn) | human ether-à-go-go-related gene (hERG) potassium channel (human, UniProt Q12809) | 17.2
CC1CCC(C(C)C)C(OC(=O)COC(=O)c2cc(O)ccc2N)C1 (stereo not drawn) | human ether-à-go-go-related gene (hERG) potassium channel (human, UniProt Q12809) | 12.9
Cc1ccccc1OCCC(=O)OCC(=O)N1CCN(S(=O)(=O)c2ccc(Cl)cc2)CC1 | human ether-à-go-go-related gene (hERG) potassium channel (human, UniProt Q12809) | -13.1
Cn1c(=O)c2c(nc(Br)n2CC(=O)c2cccs2)n(C)c1=O | human ether-à-go-go-related gene (hERG) potassium channel (human, UniProt Q12809) | -6.03
COC(=O)[C@@]12CCCN1[C@H](c1ccc(-c3ccccc3)cc1)[C@@H]1C(=O)N(C)C(=O)[C@@H]12.O=C(O)C(F)(F)F | human ether-à-go-go-related gene (hERG) potassium channel (human, UniProt Q12809) | -6.67
CCOC(=O)COn1c(=O)c(-c2ccc(OC)cc2)[n+]([O-])c2ccccc21 | human ether-à-go-go-related gene (hERG) potassium channel (human, UniProt Q12809) | -1.13
CC(=O)N(C)c1ccc(N2CCOCC2)c2c1C(=O)c1ccccc1C2=O | human ether-à-go-go-related gene (hERG) potassium channel (human, UniProt Q12809) | -0.974
CC1CCC(C(C)C)C(OC(=O)CSc2nc(N)cc(=O)[nH]2)C1 (stereo not drawn) | human ether-à-go-go-related gene (hERG) potassium channel (human, UniProt Q12809) | 12.7
CCc1ccc(NC(=S)NCc2ccccc2)cc1 | human ether-à-go-go-related gene (hERG) potassium channel (human, UniProt Q12809) | 3.91
CC(Sc1nc2cc([N+](=O)[O-])ccc2n1-c1cccc(C(F)(F)F)c1)C(=O)NC(N)=O (stereo not drawn) | human ether-à-go-go-related gene (hERG) potassium channel (human, UniProt Q12809) | 13.6
COc1ccc(NC(=O)c2ccc(OC)cc2)cc1 | human ether-à-go-go-related gene (hERG) potassium channel (human, UniProt Q12809) | -30
Cc1cccc(OC(=O)Cn2c(C(F)(F)F)nc3ccccc32)c1 | human ether-à-go-go-related gene (hERG) potassium channel (human, UniProt Q12809) | 17.6
